testName: CCC extraction with DME of clarified fermentation broth from Clostridium acetobutylicum, GC and DNS assay
Type: physicochemical
details: Run 3, Extract, time 27 min
reportedMetric: concentration in sample (g/L)
Report the value in g/L with no unit label.

Indicate the recorded concentration in sample value for this compound: "CCO"
1.53

Identify concentration in sample associated with the compound "CC(C)CO"
35.80

Write down concentration in sample measured for item "CC(C)=O"
5.30

---

testName: CCC extraction with DME of clarified fermentation broth from Clostridium acetobutylicum, GC and DNS assay
Format: physicochemical
details: Run 3, Extract Bot, time 31 min
Protocol: This example describes three different runs of the CCC with fermentation broth from Clostridium acetobutylicum. […] The fermentation was intentionally interrupted prior to completion. The extraction column operated at room temperature (˜25° C.) throughout the column. Periodic extract and raffinate samples were taken and analyzed for the constituents in the extract and raffinate discharges. This example describes three different runs. […] All components were quantified in the extract and raffinate. […]
reportedMetric: concentration in sample (µg/mL)
Number in µg/mL, nothing else.

Known results for molecules:
> print(dat)
                                   molecule           reportedmetric  testvalue
1  CC(=O)C(C)O (stereo not shown) [Acetoin]  concentration in sample       1640
2  CC(C)CO [isobutanol, 2-methyl-1-propanol]  concentration in sample      39300
3                      CCCC(=O)O [butyrate]  concentration in sample       1570

Next molecule, please.
Give the measured concentration in sample for CC(C)=O [Acetone, acetone]
7880
